These measurements were taken from patent US8871818B2.

experimentalDetails: Plasma concentration of CFIX after oral administration to rats with polymer and/or CDX
Format: in vivo
conditionSet: male, SD, rat, CFIX 2.3 mg/kg, polymer 500 mg/kg, read-out: AUC0-8h of CFIX
propertyLabel: AUC(0-t) (ng·h/mL)
Output spec: scalar in ng·h/mL, unitless text.

Exercise: Respond only with AUC(0-t) recorded for C=CC1=C(C(=O)O)N2C(=O)[C@@H](NC(=O)/C(=N\OCC(=O)O)c3csc(N)n3)[C@H]2SC1 [CFIX, cefixime]
Solution: 10800
